Cited source: ChEMBL document CHEMBL1133677

system_tested: UniProt P00915
observation_type: Ki (nM)
Reply numerically in nM, unit not repeated.

The cases that follow already have their Ki on record.
* CC(NS(=O)(=O)C(F)(F)C(F)(F)C(F)(F)C(F)(F)F)C(=O)NO (stereo unspecified) | 21
* O=S(=O)(NO)C(Cl)(Cl)Cl | 23000
* O=S(=O)(Cc1ccccc1)NO | 19000
* COc1ccc(S(=O)(=O)NO)cc1N | 41000

Give its Ki value. Item: COc1ccc(S(=O)(=O)NO)cc1
68000

Give its Ki value. Item: O=C(CN(Cc1ccccc1[N+](=O)[O-])S(=O)(=O)c1c(F)c(F)c(F)c(F)c1F)NO
127

----------
Some compounds, each annotated with its measured pKi.
system_tested: Carbonic anhydrase 1 (Homo sapiens, UniProt P00915)
Sequence (P00915 whole entry): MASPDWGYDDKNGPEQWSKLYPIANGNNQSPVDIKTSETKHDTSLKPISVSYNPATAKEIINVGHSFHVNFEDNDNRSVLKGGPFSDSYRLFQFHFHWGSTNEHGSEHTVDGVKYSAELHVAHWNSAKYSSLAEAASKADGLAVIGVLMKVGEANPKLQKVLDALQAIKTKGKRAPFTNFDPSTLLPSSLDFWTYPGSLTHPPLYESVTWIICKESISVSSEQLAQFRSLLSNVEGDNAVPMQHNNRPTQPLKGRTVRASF
When answering, recall that pKi equals minus log10 of the concentration in mol/L, and write that number alone.

The cases that follow already have their pKi on record.
* O=S(=O)(NO)C(F)(F)C(F)(F)C(F)(F)C(F)(F)C(F)(F)C(F)(F)C(F)(F)C(F)(F)F | 5.80
* CC(C)C(NS(=O)(=O)c1c(F)c(F)c(F)c(F)c1F)C(=O)NO (centres undefined) | 8.10
* CC(C(=O)NO)N(Cc1ccccc1)S(=O)(=O)c1c(F)c(F)c(F)c(F)c1F (centres undefined) | 7.08
* CC(C)CC(C(=O)NO)N(Cc1ccccc1)S(=O)(=O)C(F)(F)C(F)(F)C(F)(F)C(F)(F)F (centres undefined) | 6.74

API: value(readout=pKi, system=Carbonic anhydrase 1 (Homo sapiens, UniProt P00915)) for record CC(C)C(C(=O)NO)N(Cc1ccccc1)S(=O)(=O)c1c(F)c(F)c(F)c(F)c1F (centres undefined)
7.06

----------
system_tested: Carbonic anhydrase 2 (Homo sapiens, UniProt P00918)
pKi: −log10 of the molar value.
Decision: pKi >= 8 yields yes (1), all other cases yield no (0).

Answered cases to consult:
* CC(C)CC(C(=O)NO)N(Cc1ccccc1)S(=O)(=O)C(F)(F)C(F)(F)C(F)(F)C(F)(F)F (stereo not given) | no (0)
* O=[N+]([O-])c1ccc(S(=O)(=O)NO)cc1Cl | yes (1)
* CC(C(=O)NO)N(Cc1ccccc1[N+](=O)[O-])S(=O)(=O)C(F)(F)C(F)(F)C(F)(F)C(F)(F)F (stereo not given) | no (0)

# input for lookup
Determine whether this molecule has pKi no lower than 8: O=S(=O)(NO)c1cccc(C(F)(F)F)c1
yes (1)

----------
The compounds below have reported Ki for Carbonic anhydrase 2 (Homo sapiens).

The cases that follow already have their Ki on record.
* O=[N+]([O-])c1ccccc1S(=O)(=O)NO | 5 nM
* O=S(=O)(NO)c1ccccc1 | 26 nM
* COc1ccc(S(=O)(=O)NCC(=O)NO)cc1 | 32 nM

Give its Ki value. Item: CC(C(=O)NO)N(Cc1ccccc1Cl)S(=O)(=O)c1c(F)c(F)c(F)c(F)c1F (stereo not given)
> 200 nM

Give its Ki value. Item: O=S(=O)(Cc1ccccc1)NO
190 nM

Give its Ki value. Item: CC(C)CC(NS(=O)(=O)c1c(F)c(F)c(F)c(F)c1F)C(=O)NO (stereo not given)
11 nM

Give its Ki value. Item: O=S(=O)(NO)C(Cl)(Cl)Cl
150 nM
